Listed next: entries and their corresponding viability, T/C.
Tested on: KRAS PDC multicell spheroid viability
PROTOCOL_SUMMARY: Anticancer human tumor 521955-158-R6-J3-PDC patient-derived pancreatic carcinoma cell line growth inhibition [KRAS2]
ASSAY_CONDITIONS: second compound 0.316 µM; first compound 0.1 µM; stronger effect = lower value
# output: bare number, implied unit %

Record excerpt, results attached:
{"COMPOUND": "CC1(C)CCC(CN2CCN(c3ccc(C(=O)NS(=O)(=O)c4ccc(NCC5CCOCC5)c([N+](=O)[O-])c4)c(Oc4cnc5[nH]ccc5c4)c3)CC2)=C(c2ccc(Cl)cc2)C1 + CC1OCC2(CCN(c3cnc(Sc4ccnc(N)c4Cl)c(N)n3)CC2)C1N", "viability, T/C (%)": 98.2}
{"COMPOUND": "Cn1nccc1Nc1nccc(-c2cc3c(s2)C(C)(C)N(CCN2CCOCC2)C3=O)n1 + COc1cc2nc(C)nc(NC(C)c3cc(N)cc(C(F)(F)F)c3)c2cc1OC1CCOC1", "viability, T/C (%)": 111}
{"COMPOUND": "CC1(C)CCC(CN2CCN(c3ccc(C(=O)NS(=O)(=O)c4ccc(NCC5CCOCC5)c([N+](=O)[O-])c4)c(Oc4cnc5[nH]ccc5c4)c3)CC2)=C(c2ccc(Cl)cc2)C1 + C=CC(=O)N1CCN(c2nc(=O)n(-c3c(C)ccnc3C(C)C)c3nc(-c4c(O)cccc4F)c(F)cc23)C(C)C1", "viability, T/C (%)": 112}

(Q) GET viability, T/C | system: KRAS PDC multicell spheroid viability | item: COc1cc(Nc2ncc3c(n2)-c2ccc(Cl)cc2C(c2c(F)cccc2OC)=NC3)ccc1C(=O)O + CC1OCC2(CCN(c3cnc(Sc4ccnc(N)c4Cl)c(N)n3)CC2)C1N
(A) 95.1

(Q) GET viability, T/C | system: KRAS PDC multicell spheroid viability | item: Cn1ncnc1[C@H]1c2n[nH]c(=O)c3cc(F)cc(c23)N[C@@H]1c1ccc(F)cc1 + CNCc1ccccc1-c1csc(C(C)Nc2nc(C)nc3cc(OC)c(OC)cc23)c1
(A) 72.2

###

Listed next: entries and their corresponding viability, T/C.
Test system: KRAS PDC multicell spheroid viability
PROTOCOL_SUMMARY: Anticancer human tumor 521955-158-R6-J3-PDC cell line growth inhibition [KRAS2];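 note: drug exposure lasted seven days; 100% = DMSO vehicle wells and lower means fewer viable cells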
ASSAY_CONDITIONS: second compound 0.1 µM; first compound 1 µM; stronger effect = lower value
# output: bare number, implied unit %

Record excerpt, results attached:
{"COMPOUND": "CCN1CCN(Cc2ccc(Nc3ncc(F)c(-c4cc(F)c5nc(C)n(C(C)C)c5c4)n3)nc2)CC1 + CNCc1ccccc1-c1csc(C(C)Nc2nc(C)nc3cc(OC)c(OC)cc23)c1", "STUDY_SYSTEM": "KRAS PDC multicell spheroid viability", "READOUT_UNITS": "%", "viability, T/C": 102}
{"COMPOUND": "Cn1nccc1Nc1nccc(-c2cc3c(s2)C(C)(C)N(CCN2CCOCC2)C3=O)n1 + COc1cc2nc(C)nc(NC(C)c3cc(N)cc(C(F)(F)F)c3)c2cc1OC1CCOC1", "STUDY_SYSTEM": "KRAS PDC multicell spheroid viability", "READOUT_UNITS": "%", "viability, T/C": 85.5}
{"COMPOUND": "O=C(c1cc(Cc2n[nH]c(=O)c3ccccc23)ccc1F)N1CCN(C(=O)C2CC2)CC1 + C=CC(=O)N1CCN(c2nc(=O)n(-c3c(C)ccnc3C(C)C)c3nc(-c4c(O)cccc4F)c(F)cc23)C(C)C1", "STUDY_SYSTEM": "KRAS PDC multicell spheroid viability", "READOUT_UNITS": "%", "viability, T/C": 96.1}
{"COMPOUND": "COC(=O)c1ccc2c(C(=Nc3ccc(N(C)C(=O)CN4CCN(C)CC4)cc3)c3ccccc3)c(O)[nH]c2c1 + CC1OCC2(CCN(c3cnc(Sc4ccnc(N)c4Cl)c(N)n3)CC2)C1N", "STUDY_SYSTEM": "KRAS PDC multicell spheroid viability", "READOUT_UNITS": "%", "viability, T/C": 114}

Now turn to the next compound.
(Q) Identify viability, T/C associated with the compound CCNC(=O)CC1N=C(c2ccc(Cl)cc2)c2cc(OC)ccc2-n2c(C)nnc21 (stereo not given) + C=CC(=O)N1CCN(c2nc(=O)n(-c3c(C)ccnc3C(C)C)c3nc(-c4c(O)cccc4F)c(F)cc23)C(C)C1
(A) 78.5

###

System: KRAS PDC multicell spheroid viability
PROTOCOL_SUMMARY: Anticancer human tumor 521955-158-R6-J3-PDC cell line growth inhibition [KRAS2];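 note: drug exposure lasted seven days; 100% = DMSO vehicle wells and lower means fewer viable cells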
ASSAY_CONDITIONS: second compound 0.316 µM; first compound 0.1 µM; stronger effect = lower value
Listed next: entries and their corresponding viability, T/C.
# output: bare number, implied unit %

Record excerpt, results attached:
{"MOLECULE": "COc1cc(Nc2ncc3c(n2)-c2ccc(Cl)cc2C(c2c(F)cccc2OC)=NC3)ccc1C(=O)O + CNCc1ccccc1-c1csc(C(C)Nc2nc(C)nc3cc(OC)c(OC)cc23)c1", "READOUT_UNITS": "%", "viability, T/C": 84.6}
{"MOLECULE": "COc1cc(Nc2ncc3c(n2)-c2ccc(Cl)cc2C(c2c(F)cccc2OC)=NC3)ccc1C(=O)O + C=CC(=O)N1CCN(c2nc(OCC3CCCN3C)nc3c2CCN(c2cccc4cccc(C)c24)C3)CC1CC#N", "READOUT_UNITS": "%", "viability, T/C": 87.4}
{"MOLECULE": "CC(=O)OC12COC1CC(O)C1(C)C(=O)C(O)C3=C(C)C(OC(=O)C(O)C(NC(=O)OC(C)(C)C)c4ccccc4)CC(O)(C(OC(=O)c4ccccc4)C21)C3(C)C (stereo not given) + C=CC(=O)N1CCN(c2nc(OCC3CCCN3C)nc3c2CCN(c2cccc4cccc(C)c24)C3)CC1CC#N", "READOUT_UNITS": "%", "viability, T/C": 68.8}
{"MOLECULE": "CC1COCCN1c1cc(-c2ccnn2C)c2ccnc(-c3ccn[nH]3)c2n1 (stereo not given) + CC1OCC2(CCN(c3cnc(Sc4ccnc(N)c4Cl)c(N)n3)CC2)C1N", "READOUT_UNITS": "%", "viability, T/C": 74.6}
{"MOLECULE": "CC1(C)CCC(CN2CCN(c3ccc(C(=O)NS(=O)(=O)c4ccc(NCC5CCOCC5)c([N+](=O)[O-])c4)c(Oc4cnc5[nH]ccc5c4)c3)CC2)=C(c2ccc(Cl)cc2)C1 + CNCc1ccccc1-c1csc(C(C)Nc2nc(C)nc3cc(OC)c(OC)cc23)c1", "READOUT_UNITS": "%", "viability, T/C": 90.5}
{"MOLECULE": "CN(C)C/C=C/C(=O)Nc1cc2c(Nc3ccc(F)c(Cl)c3)ncnc2cc1O[C@H]1CCOC1 + CNCc1ccccc1-c1csc(C(C)Nc2nc(C)nc3cc(OC)c(OC)cc23)c1", "READOUT_UNITS": "%", "viability, T/C": 56.7}
{"MOLECULE": "CC(C)n1nc(-c2ccc3oc(N)nc3c2)c2c(N)ncnc21 + CNCc1ccccc1-c1csc(C(C)Nc2nc(C)nc3cc(OC)c(OC)cc23)c1", "READOUT_UNITS": "%", "viability, T/C": 42.1}
{"MOLECULE": "CC(=O)OC12COC1CC(O)C1(C)C(=O)C(O)C3=C(C)C(OC(=O)C(O)C(NC(=O)OC(C)(C)C)c4ccccc4)CC(O)(C(OC(=O)c4ccccc4)C21)C3(C)C (stereo not given) + CNCc1ccccc1-c1csc(C(C)Nc2nc(C)nc3cc(OC)c(OC)cc23)c1", "READOUT_UNITS": "%", "viability, T/C": 69.9}
{"MOLECULE": "CC(C)n1nc(-c2ccc3oc(N)nc3c2)c2c(N)ncnc21 + CC1OCC2(CCN(c3cnc(Sc4ccnc(N)c4Cl)c(N)n3)CC2)C1N", "READOUT_UNITS": "%", "viability, T/C": 44.3}

Now turn to the next molecule.
(Q) Identify viability, T/C associated with the molecule CC(=O)OC12COC1CC(O)C1(C)C(=O)C(O)C3=C(C)C(OC(=O)C(O)C(NC(=O)OC(C)(C)C)c4ccccc4)CC(O)(C(OC(=O)c4ccccc4)C21)C3(C)C (stereo not given) + C=CC(=O)N1CCN(c2nc(=O)n(-c3c(C)ccnc3C(C)C)c3nc(-c4c(O)cccc4F)c(F)cc23)C(C)C1
(A) 74.4

###

Tested on: KRAS PDC multicell spheroid viability
PROTOCOL_SUMMARY: Anticancer human tumor 521955-158-R6-J3-PDC cell line growth inhibition [KRAS2];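 note: drug exposure lasted seven days; 100% = DMSO vehicle wells and lower means fewer viable cells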
ASSAY_CONDITIONS: second compound 3.16 µM; first compound 0.1 µM; stronger effect = lower value
READOUT: viability, T/C

Record excerpt, results attached:
{"COMPOUND": "O=C(c1cc(Cc2n[nH]c(=O)c3ccccc23)ccc1F)N1CCN(C(=O)C2CC2)CC1 + COc1cc2nc(C)nc(NC(C)c3cc(N)cc(C(F)(F)F)c3)c2cc1OC1CCOC1", "viability, T/C": "75.6%"}
{"COMPOUND": "CN(C)C/C=C/C(=O)Nc1cc2c(Nc3ccc(F)c(Cl)c3)ncnc2cc1O[C@H]1CCOC1 + CNCc1ccccc1-c1csc(C(C)Nc2nc(C)nc3cc(OC)c(OC)cc23)c1", "viability, T/C": "2.28%"}

Now turn to the next compound.
(Q) Identify viability, T/C associated with the compound CC(C)n1nc(-c2ccc3oc(N)nc3c2)c2c(N)ncnc21 + CNCc1ccccc1-c1csc(C(C)Nc2nc(C)nc3cc(OC)c(OC)cc23)c1
(A) 1.6%
